target: T1, neuropilin-1 (NRP1) on HEK293 cells overexpressing NRP1 (UniProt O14786 22-923, limits assumed); assay: flow cytometry, HEK293-NRP1 vs HEK293
T1 construct: whole, on cells
Kindly return true if reported 100 nM FACS (MFI Ratio) is no lower than 3; return false if it is lower.

binder="NRP1-111 (VHH) VHH: EVQLVESGGGLVQPGGSLRLSCAASGIAFRIRTMGWFRQAPGKERELVAAITSSSGRRWYADSVKGRFTISADNSKNTAYLQMNSLKPEDTAVYYCAARRIVNVEGAYRDWGQGTLVTVSS" label=false
binder="NRP1-87 (VHH) VHH: EVQLVESGGGLVQPGGSLRLSCAASGRIFTMGWFRQAPGKEREFVASITTDGNTLYADSVKGRFTISADNSKNTAYLQMNSLKPEDTAVYYCARWVGASAYHYGMDVWGQGTLVTVSS" label=true
binder="NRP1-101 (VHH) VHH: EVQLVESGGGLVQPGGSLRLSCAASGRNRYGMGWFRQAPGKEREFVAAISRSGGSTNYADSVKGRFTISADNSKNTAYLQMNSLKPEDTAVYYCAKGGAQNYTWGQGTLVTVSS" label=false
binder="NRP1-96 (VHH) VHH: EVQLVESGGGLVQPGGSLRLSCAASGLTYTMSWFRQAPGKEREFVAGFSGSGSVTSYADSVKGRFTISADNSKNTAYLQMNSLKPEDTAVYYCAAFDGYSGSDWGQGTLVTVSS" label=false
binder="NRP1-6 (VHH) VHH: EVQLVESGGGLVQPGGSLRLSCAASGLTYTMNWFRQAPGKEREFVAGFAGIGTVTSYADSVKGRFTISADNSKNTAYLQMNSLKPEDTAVYYCSGFDGYSGSDWGQGTLVTVSS" label=false
binder="NRP1-51 (VHH) VHH: EVQLVESGGGLVQPGGSLRLSCAASGFAFSNYHMGWFRQAPGKERELVARITPGGNTNYADSVKGRFTISADNSKNTAYLQMNSLKPEDTAVYYCAARRIVNVEGAYRDWGQGTLVTVSS" label=false
binder="NRP1-91 (VHH) VHH: EVQLVESGGGLVQPGGSLRLSCAASGNIFINNAMGWFRQAPGKERELVAAITSSSGRRWYADSVKGRFTISADNSKNTAYLQMNSLKPEDTAVYYCAAGSPSRLVNMWQYNWGQGTLVTVSS" label=false
binder="NRP1-8 (VHH) VHH: EVQLVESGGGLVQPGGSLRLSCAASGFPLDDYAMGWFRQAPGKEREFVAAINWSGGSAVYADSVKGRFTISADNSKNTAYLQMNSLKPEDTAVYYCMRGGSYGDYGGYWGQGTLVTVSS" label=true

The reported numbers originate from patent US20230265198A1.
